# Test system: HIF-2α transcriptional activity
# assay-name: Hypoxia-responsive element-driven luciferase (HRE-Luc) screen
# Type: cell-based, human
# stated-conditions: Homo sapiens, 786-0, 24 h, 786-0 ccRCC cells stably expressing HRE-Luc; 24 h treatment; range of IC50 values
The entries below come with measured IC50 values attached.

COc1ccc(-c2nnc(Nc3nc4cccc(OC)c4[nH]3)o2)cc1 | 10 to 50 µM

Requested field: IC50. Item: COc1cccc2sc(Nc3nnc(-c4ccc(F)cc4)o3)nc12
< 10 µM

Request the reported IC50 associated with COc1ccc(-c2nnc(Nc3nc4ncccc4o3)o2)cc1
< 10 µM

If you can, please state the reported IC50 value of COc1ccc(-c2nnc(Nc3nc4c(OC)cccc4[nH]3)o2)cc1F .
> 100 µM

Looking for the measured IC50 of COc1ccc(-c2nnc(Nc3nc4c(OC)nccc4[nH]3)o2)cc1 , can you help?
< 10 µM

Consider the compound shown here: COc1nccc2[nH]c(Nc3nnc([C@H]4CC[C@H](OC)CC4)o3)nc12 What is its recorded IC50?
< 10 µM

Fill in the blank: the reported IC50 of COc1cccc(-c2nccc3nc(Nc4nnc(-c5ccc(F)cc5)o4)[nH]c23)c1 is ____.
50 to 100 µM

Form field: reported IC50 of COc1ccc(-c2cnc(Nc3nc4c(OC)nccc4[nH]3)o2)cc1OC
50 to 100 µM
